# Procedure Summary: Metabolic stability in human liver microsomes assessed as half life measured after 5 mins in presence of NADPH and UDPGA by LC-MS/MS analysis
# Format: ADME, Microsome
Measurement Name: half-life (min)
Kindly provide the numeric value in min only, without the unit symbol.

>  <Smiles Str>
Cc1cc(C)c(CNC(=O)c2cc(-c3ccc(N4CCN(c5ncc(C(=O)Nc6ccccc6N)cn5)CC4)nc3)cc3c2cnn3C(C)C)c(=O)[nH]1

>  <half-life / min>
17.7

$$$$

# lookup: half-life of Cc1cc(C)c(CNC(=O)c2cc(-c3ccc(N4CCN(c5ncc(C(=O)NO)cn5)CC4)nc3)cc3c2cnn3C(C)C)c(=O)[nH]1 15.3
